- tested-system: C. elegans (N2) complex I (NADH:ubiquinone oxidoreductase) (Caenorhabditis elegans, UniProt P24887+Q93873+Q94360)
- Sequence (Q94360 17-199): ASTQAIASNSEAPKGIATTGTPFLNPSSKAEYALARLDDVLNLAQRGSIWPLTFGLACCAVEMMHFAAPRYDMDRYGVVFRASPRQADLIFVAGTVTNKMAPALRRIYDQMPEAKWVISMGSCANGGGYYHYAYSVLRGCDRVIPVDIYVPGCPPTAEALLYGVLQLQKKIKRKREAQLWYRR
- Sequence (P24887 whole entry): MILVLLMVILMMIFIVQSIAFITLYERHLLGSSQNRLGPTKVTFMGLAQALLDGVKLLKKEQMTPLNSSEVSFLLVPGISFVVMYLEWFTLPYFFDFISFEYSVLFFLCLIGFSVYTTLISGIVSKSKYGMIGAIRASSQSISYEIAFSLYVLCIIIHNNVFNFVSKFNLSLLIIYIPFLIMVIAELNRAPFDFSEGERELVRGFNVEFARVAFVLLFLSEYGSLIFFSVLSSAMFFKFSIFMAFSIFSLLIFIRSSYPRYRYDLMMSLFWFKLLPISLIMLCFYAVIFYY
- Sequence (Q93873 31-482): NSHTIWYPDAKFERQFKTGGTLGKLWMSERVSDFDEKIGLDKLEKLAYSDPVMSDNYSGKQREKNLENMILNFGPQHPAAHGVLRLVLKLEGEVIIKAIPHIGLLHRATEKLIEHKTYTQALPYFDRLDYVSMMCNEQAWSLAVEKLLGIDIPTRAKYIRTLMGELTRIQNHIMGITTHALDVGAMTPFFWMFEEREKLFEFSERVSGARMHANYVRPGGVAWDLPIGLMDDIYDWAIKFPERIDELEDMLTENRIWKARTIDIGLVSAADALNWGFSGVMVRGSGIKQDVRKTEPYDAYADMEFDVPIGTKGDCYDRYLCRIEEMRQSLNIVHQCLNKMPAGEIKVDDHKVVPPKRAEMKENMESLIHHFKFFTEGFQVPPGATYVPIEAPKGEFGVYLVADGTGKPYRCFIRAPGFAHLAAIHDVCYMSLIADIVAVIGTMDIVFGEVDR
- assay-remarks: biochemical
- Format: biochemical
- condition-info: wild-type C. elegans mitochondria; read-out: C. elegans Complex I IC50
pIC50: −log10 of the molar value.
# if value of pIC50 reaches 5, tag Met; if it stays below, tag Not met

> print(dat)
                                    molecule  category
 1              Clc1ccc(Cn2cnc3ccccc32)cc1Cl       Met
 2                Nc1nc2ccccc2n1CCCOc1ccccc1       Met
 3               Cc1nc2ccccc2n1CCOc1ccccc1Cl       Met
 4          CC(C)Oc1cccc(OCCn2cnc3ccccc32)c1       Met
 5          Clc1ccc(OCCn2cnc3ccccc32)c(Cl)c1       Met
 6               Cc1ccc(OCCn2cnc3ccccc32)cc1       Met
 7         Cc1nc2ccccc2n1Cc1ccc(C(C)(C)C)cc1       Met
 8                 Cc1nc2ccccc2n1CCOc1ccccc1       Met
 9            Cc1ccc(CSCc2nc3ccccc3[nH]2)cc1   Not met
10  c1ccc(-c2noc(CCCCc3nc4ccccc4[nH]3)n2)cc1   Not met
11              CCc1ccc(CNc2nc3ccccc3n2C)cc1   Not met
12  CC(C)Cc1ccc(C(C)c2nc3ccccc3n2C(C)C)cc1 (centres unmarked)       Met
13             Nc1nc2ccccc2n1CCOc1ccc(Br)cc1       Met
14  CCc1ccc(OC(C)c2nc3ccccc3[nH]2)cc1 (centres unmarked)   Not met

---

- tested-system: B. taurus (heart) complex I (Bos taurus, UniProt P03887+P17694+P42026)
- Sequence (P03887 whole entry): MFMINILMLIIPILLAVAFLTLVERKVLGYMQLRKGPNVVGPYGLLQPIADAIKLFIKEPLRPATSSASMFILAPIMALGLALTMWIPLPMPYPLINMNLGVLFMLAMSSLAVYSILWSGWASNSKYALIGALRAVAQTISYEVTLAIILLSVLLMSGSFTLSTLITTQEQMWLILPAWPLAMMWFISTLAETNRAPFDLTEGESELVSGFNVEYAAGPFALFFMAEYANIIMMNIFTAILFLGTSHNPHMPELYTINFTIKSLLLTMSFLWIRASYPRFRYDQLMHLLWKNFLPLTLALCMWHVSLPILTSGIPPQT
- Sequence (P17694 34-463): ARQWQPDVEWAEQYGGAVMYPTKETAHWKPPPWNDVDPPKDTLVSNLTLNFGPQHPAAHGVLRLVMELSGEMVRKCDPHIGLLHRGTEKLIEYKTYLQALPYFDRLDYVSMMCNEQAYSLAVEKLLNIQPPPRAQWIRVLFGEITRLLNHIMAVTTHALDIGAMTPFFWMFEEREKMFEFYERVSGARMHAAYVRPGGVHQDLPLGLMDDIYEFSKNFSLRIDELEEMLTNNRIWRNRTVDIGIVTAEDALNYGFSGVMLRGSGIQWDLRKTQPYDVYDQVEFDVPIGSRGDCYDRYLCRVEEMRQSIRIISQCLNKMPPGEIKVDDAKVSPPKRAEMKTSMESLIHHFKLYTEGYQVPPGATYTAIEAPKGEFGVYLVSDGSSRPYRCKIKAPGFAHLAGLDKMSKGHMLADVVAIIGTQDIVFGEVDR
- Sequence (P42026 38-216): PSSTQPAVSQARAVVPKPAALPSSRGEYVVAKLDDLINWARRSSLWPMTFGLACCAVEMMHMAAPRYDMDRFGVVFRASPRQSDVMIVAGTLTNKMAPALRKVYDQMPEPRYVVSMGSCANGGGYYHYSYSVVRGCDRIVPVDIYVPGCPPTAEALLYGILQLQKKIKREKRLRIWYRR
- assay-remarks: biochemical
- Type: biochemical
- condition-info: B. taurus; dose 0.025 µM; Mean of replicates; read-out: Complex I activity, dose-response data
Listed below: activity at 0.025 µM values for each entry.
readout-kind: activity at 0.025 µM (%)

> print(dat)
                                   compound          readout.kind  reported
1  COc1cc2c(cc1OC)C(/C=C/c1ccc(N(C)C)cc1)=NCC2 [NPD6303]  activity at 0.025 µM      91.5
2  COc1cc2c(cc1OC)C(C(C)c1ccc(CC(C)C)cc1)=NCC2 (stereo not shown) [NPD10504]  activity at 0.025 µM       101
3  COc1cc2c(cc1OC)C(c1ccc(-c3ccc(Cl)c(Cl)c3)o1)=NCC2 [NPD3577]  activity at 0.025 µM       115
4  CC(C)Cc1ccc(C(C)c2nc3ccccc3n2C)cc1 (stereo not shown) [NPD8790]  activity at 0.025 µM       101

---

- Test system: L1 wild-type C. elegans
- condition-info: drug + KCN, 0.8 µM, 15-hour, mean of replicates
readout-kind: KCN survival assay value relative to DMSO control, Mean

> print(dat)
                                   compound  reported
1  O=C(Nc1ccc([N+](=O)[O-])cc1Cl)c1cc(Cl)ccc1O [Niclosamide]     0.011
2  O=C(Nc1cc(Cl)cc(Cl)c1O)c1c(O)c(Cl)cc(Cl)c1Cl [Oxyclozanide]     0.012
3  O=C(Nc1ccc(Oc2ccc(Cl)cc2)c(Cl)c1)c1cc(I)cc(I)c1O [Rafoxanide]    0.0007
4  Cc1cc(C(C#N)c2ccc(Cl)cc2)c(Cl)cc1NC(=O)c1cc(I)cc(I)c1O (stereo not shown)     0.018

This collection of values is drawn from paper PMC11079024.
